assay: chemical genetic growth profiling, strain panel (AID 1159580);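 further: tested at 20 µM; growth read once vehicle control cultures reached saturation at 30 °C; 1 = growth at the plate median or of vehicle wells; lower values mean less growth of the strain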; conditions: S. cerevisiae deletion strains, growth OD, locus YDR334W, strain swr1, stronger effect = lower value
About 2,000 (36%) of roughly 5,500 compounds were called active. Another 18% or so got no clear call; they are omitted. The list shows a part of the results.
READOUT NAME: normalized growth
Answer with a number only.

# example entries with known answers
>  <MOLECULE>
COc1c(O)cc2c(c1O)[C@H]1O[C@H](CO)[C@@H](O)[C@H](O)[C@@H]1OC2=O

>  <normalized growth>
1.02

$$$$
>  <MOLECULE>
COC(=O)CC1C(C)(C)C(OC(C)=O)[C@@H]2[C@@H](OC(C)=O)[C@]34O[C@@]2(O)[C@]1(C)C3CC[C@]1(C)C4=CC(=O)O[C@H]1c1ccoc1 (some centres undefined)

>  <normalized growth>
1.01

$$$$
>  <MOLECULE>
O=c1c(-c2ccc(O)cc2)coc2c(C3O[C@H](CO)[C@@H](O)[C@H](O)[C@H]3O)c(O)ccc12 (some centres undefined)

>  <normalized growth>
0.973

$$$$

Consider the record given below.
Asked: Consider the molecule COC(=O)[C@H]1[C@H]2C[C@H]3c4[nH]c5cc(OC)ccc5c4CCN3C[C@H]2C[C@@H](OC(=O)c2cc(OC)c(OC)c(OC)c2)[C@@H]1OC and give its measured normalized growth.
Given back: 1.02

* * *

test: chemical genetic growth profiling, strain panel (AID 1159580);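 further: tested at 20 µM; growth read once vehicle control cultures reached saturation at 30 °C; 1 = growth at the plate median or of vehicle wells; lower values mean less growth of the strain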; conditions: S. cerevisiae deletion strains, growth OD, locus YOR001W, strain rrp6, stronger effect = lower value
About 2,000 (36%) of roughly 5,500 compounds were called active. Not shown: some 18% with an inconclusive outcome. The list shows a part of the results.
READOUT NAME: normalized growth
Reply: number alone, nothing else.

Previously resolved entries follow.
>  <MOLECULE>
C[C@@H]1CC[C@@]23CCC4(C)[C@@](C=CC5[C@@]6(C)CCC(=O)C(C)(C)C6CC[C@]54C)(OC2=O)C3[C@H]1C (some centres not stated)

>  <VALUE MEASURED>
1.02

$$$$
>  <MOLECULE>
CC(C)C[C@@H](NC(=O)OCC1c2ccccc2-c2ccccc21)C(=O)O

>  <VALUE MEASURED>
1.01

$$$$
>  <MOLECULE>
O=C(Oc1ccccc1C(=O)O)c1ccccc1O

>  <VALUE MEASURED>
0.984

$$$$
>  <MOLECULE>
COC1C(O)C(O[C@H]2CC[C@]3(C=O)C4C(CC[C@]3(O)C2)[C@@]2(O)CC[C@H](C3=CC(=O)OC3)[C@@]2(C)C[C@H]4OC(C)=O)OC(C)C1OC(C)=O (some centres not stated)

>  <VALUE MEASURED>
0.97

$$$$
>  <MOLECULE>
Oc1ccc([C@H]2Oc3cc(O)cc(O)c3C[C@H]2O)cc1

>  <VALUE MEASURED>
0.947

$$$$
>  <MOLECULE>
CC1(C)O[C@@H]2CC3C4C[C@H](F)C5=CC(=O)CC[C@]5(C)C4[C@@H](O)C[C@]3(C)[C@]2(C(=O)CO)O1 (some centres not stated)

>  <VALUE MEASURED>
1

$$$$
>  <MOLECULE>
COc1nc(NC(C)C)nc(NC(C)C)n1

>  <VALUE MEASURED>
1.02

$$$$
>  <MOLECULE>
NC[C@@H]1O[C@H](O[C@@H]2[C@@H](CO)OC(O[C@@H]3[C@@H](O)[C@H](N)C[C@H](N)[C@H]3O[C@H]3O[C@H](CO)[C@@H](O)[C@H](O)[C@H]3N)[C@@H]2O)[C@H](N)[C@@H](O)[C@@H]1O (some centres not stated)

>  <VALUE MEASURED>
0.985

$$$$
>  <MOLECULE>
O=C(Oc1cccc2cccnc12)c1ccccc1

>  <VALUE MEASURED>
0.95

$$$$
>  <MOLECULE>
O=c1c(O)cc([C@H]2Oc3cc(O)cc(O)c3C[C@H]2O)cc2c([C@H]3Oc4cc(O)cc(O)c4C[C@H]3O)cc(O)c(O)c12

>  <VALUE MEASURED>
1.03

$$$$

In the following, a different molecule is considered.
Asked: What normalized growth value was documented for this molecule, CC(C)Nc1nc(Cl)nc(NC(C)C)n1 ?
Given back: 0.999
